Tested on: Aspergillus fumigatus
Test: In vitro minimum inhibitory concentration against Aspergillus fumigatus
Format: functional
Where a SMILES comes first, the peptide text is derived from it. Bridges are numbered along the chain shown (N, C = ends). [ ]: non-standard residue; d: D form. The star is where a group is joined. Tetradecanoyl(3R-OH) = CCCCCCCCCCC[C@@H](O)CC(=O)*; Asp(3S-OH) = N[C@H](C(=O)O)[C@H](O)C(=O)O; Thr(4-Cl) = N[C@H](C(=O)O)[C@H](O)CCl; aThr = C[C@H](O)[C@H](N)C(=O)O; dDab = NCC[C@@H](N)C(=O)O; Dab = NCC[C@H](N)C(=O)O; Dhb = C/C=C(\N)C(=O)O
The compounds listed here are annotated with their MIC.

Some entries whose results are on file:
[
  {
    "compound": "C/C=C1\\NC(=O)[C@H]([C@H](C)O)NC(=O)[C@H](CCN)NC(=O)[C@H](CCCCN)NC(=O)[C@H]2CC(=O)O[C@H](C(=O)O)[C@H](NC1=O)C(=O)N[C@@H]([C@H](O)CCl)C(=O)OC[C@H](NC(=O)C[C@H](O)CCCCCCCCCCC)C(=O)N[C@H](CCN)C(=O)N2",
    "measured_target": "Aspergillus fumigatus",
    "metric_name": "MIC",
    "reading": "> 20 µg/mL"
  },
  {
    "compound": "C/C=C1\\NC(=O)[C@H]([C@H](C)O)NC(=O)[C@H](CCN)NC(=O)[C@H](CCCCN)N2C(=O)C[C@H](NC(=O)[C@@H](CCN)NC(=O)[C@@H](NC(=O)C[C@H](O)CCCCCCCCCCC)COC(=O)/C(=C\\CO)NC(=O)[C@H]([C@H](O)C(=O)O)NC1=O)C2=O",
    "measured_target": "Aspergillus fumigatus",
    "metric_name": "MIC",
    "reading": "> 20 µg/mL"
  },
  {
    "compound": "C/C=C1\\NC(=O)[C@H]([C@H](C)O)NC(=O)[C@H](CCN)NC(=O)[C@H](CCCCN)NC(=O)[C@H](CC(=O)O)NC(=O)[C@@H](CCN)NC(=O)[C@@H](NC(=O)C[C@H](O)CCCCCCCCCCC)COC(=O)[C@H]([C@H](O)CCl)NC(=O)[C@H]([C@H](O)C(=O)O)NC1=O [PSEUDOMYCIN B] ({Tetradecanoyl(3R-OH)}-S[dDab]DK[Dab][aThr][Dhb][Asp(3S-OH)][Thr(4-Cl)]; ester 1-C)",
    "measured_target": "Aspergillus fumigatus",
    "metric_name": "MIC",
    "reading": "20 µg/mL"
  }
]

# query: MIC of entry C/C=C1\NC(=O)[C@H]([C@@H](C)O)NC(=O)[C@@H](CCN)NC(=O)[C@H](CCCCN)N2C(=O)C[C@@H](NC(=O)[C@H](CCN)NC(=O)C(NC(=O)C[C@@H](O)CCCCCCCCCCC)COC(=O)[C@@H]([C@@H](O)CCl)NC(=O)[C@H]([C@H](O)C(=O)O)NC1=O)C2=O (some centres undefined)
> 20 µg/mL
